// provenance: patent US20090143426A1

- TARGET ENTITY: BioXTal ET-A receptor (Homo sapiens)
- Sequence (P25101 21-427): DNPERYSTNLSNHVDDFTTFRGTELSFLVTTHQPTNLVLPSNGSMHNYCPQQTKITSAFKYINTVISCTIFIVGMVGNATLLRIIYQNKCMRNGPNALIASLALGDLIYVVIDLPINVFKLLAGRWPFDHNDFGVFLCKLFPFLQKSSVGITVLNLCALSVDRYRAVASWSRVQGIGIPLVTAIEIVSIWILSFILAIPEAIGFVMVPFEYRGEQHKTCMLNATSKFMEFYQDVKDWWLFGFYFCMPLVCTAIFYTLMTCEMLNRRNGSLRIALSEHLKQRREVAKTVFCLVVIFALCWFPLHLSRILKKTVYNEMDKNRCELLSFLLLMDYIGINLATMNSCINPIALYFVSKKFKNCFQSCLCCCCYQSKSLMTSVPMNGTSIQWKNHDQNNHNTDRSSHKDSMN
QUANTITY NAME: IC50 (nM)

• CCc1cc2c(cc1Cn1c(C(=O)O)c(Cc3cccc(C(=O)O)c3)c(=O)c3cc(O)ccc31)OCO2 = 70.1

----------
QUANTITY NAME: melting point

• CCOC(=O)c1cccc(Cc2c(C(=O)OCC)n(Cc3cc4c(cc3CC)OCO4)c3ccc(OC(C)CC)cc3c2=O)c1 (stereo not shown) = 129 to 132 °C
• CCOC(=O)c1cccc(Cc2c(C(=O)OCC)n(Cc3cc4c(cc3CC)OCO4)c3ccc(OCCCO)cc3c2=O)c1 = 129 to 132 °C
• C=CCOc1ccc2c(c1)c(=O)c(Cc1cccc(C(=O)O)c1)c(C(=O)O)n2Cc1cc2c(cc1CC)OCO2 = 165 to 166 °C
• CCCOc1ccc2c(c1)c(=O)c(Cc1cccc(C(=O)OCC)c1)c(C(=O)OCC)n2Cc1cc2c(cc1CC)OCO2 = 134 to 135 °C
• CCOC(=O)c1cccc(Cc2c(C(=O)OCC)n(Cc3cc4c(cc3CC)OCO4)c3ccc(OCC)cc3c2=O)c1 = 124 to 126 °C
• CCCCOc1ccc2c(c1)c(=O)c(Cc1cccc(C(=O)O)c1)c(C(=O)O)n2Cc1cc2c(cc1CC)OCO2 = 161 to 162 °C
• CCOC(=O)c1cccc(Cc2c(C(=O)OCC)n(Cc3cc4c(cc3CC)OCO4)c3ccc(O)cc3c2=O)c1 = 232 to 234 °C
